measurementTarget: xMutSα PIP (xMsh2-xMsh6PIP-FLAG) (Xenopus laevis, UniProt A0A1B4WRB1;A0A1B4WRB2 1-932;1-1340, Q4A;F10A;F11A)
Sequence (chain, as listed by the source Q4A;F10A;F11A, chain 1 of 2): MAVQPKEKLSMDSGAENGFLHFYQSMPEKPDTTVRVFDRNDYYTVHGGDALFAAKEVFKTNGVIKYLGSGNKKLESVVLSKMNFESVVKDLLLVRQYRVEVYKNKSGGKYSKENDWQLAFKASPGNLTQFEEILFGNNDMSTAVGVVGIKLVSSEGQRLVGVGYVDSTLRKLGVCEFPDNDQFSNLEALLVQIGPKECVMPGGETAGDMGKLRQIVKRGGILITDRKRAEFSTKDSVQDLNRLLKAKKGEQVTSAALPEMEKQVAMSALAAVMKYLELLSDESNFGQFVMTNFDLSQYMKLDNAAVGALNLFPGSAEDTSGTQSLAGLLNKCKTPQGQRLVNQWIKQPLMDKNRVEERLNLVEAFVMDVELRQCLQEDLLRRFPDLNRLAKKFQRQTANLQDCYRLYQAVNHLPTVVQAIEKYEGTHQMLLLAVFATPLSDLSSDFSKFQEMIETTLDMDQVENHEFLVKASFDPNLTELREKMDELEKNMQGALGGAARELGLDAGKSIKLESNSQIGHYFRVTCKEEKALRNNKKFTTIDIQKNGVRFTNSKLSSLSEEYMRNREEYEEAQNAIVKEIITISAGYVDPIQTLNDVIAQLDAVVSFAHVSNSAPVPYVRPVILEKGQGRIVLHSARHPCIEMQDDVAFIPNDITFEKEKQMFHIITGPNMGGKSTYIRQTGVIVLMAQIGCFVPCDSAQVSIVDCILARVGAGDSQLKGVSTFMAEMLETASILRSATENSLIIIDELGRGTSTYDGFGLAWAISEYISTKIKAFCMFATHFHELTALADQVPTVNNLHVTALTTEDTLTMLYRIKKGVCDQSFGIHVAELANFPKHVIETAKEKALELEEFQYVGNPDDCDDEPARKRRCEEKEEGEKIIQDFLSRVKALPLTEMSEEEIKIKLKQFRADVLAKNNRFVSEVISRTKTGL
Sequence (chain, as listed by the source Q4A;F10A;F11A, chain 2 of 2): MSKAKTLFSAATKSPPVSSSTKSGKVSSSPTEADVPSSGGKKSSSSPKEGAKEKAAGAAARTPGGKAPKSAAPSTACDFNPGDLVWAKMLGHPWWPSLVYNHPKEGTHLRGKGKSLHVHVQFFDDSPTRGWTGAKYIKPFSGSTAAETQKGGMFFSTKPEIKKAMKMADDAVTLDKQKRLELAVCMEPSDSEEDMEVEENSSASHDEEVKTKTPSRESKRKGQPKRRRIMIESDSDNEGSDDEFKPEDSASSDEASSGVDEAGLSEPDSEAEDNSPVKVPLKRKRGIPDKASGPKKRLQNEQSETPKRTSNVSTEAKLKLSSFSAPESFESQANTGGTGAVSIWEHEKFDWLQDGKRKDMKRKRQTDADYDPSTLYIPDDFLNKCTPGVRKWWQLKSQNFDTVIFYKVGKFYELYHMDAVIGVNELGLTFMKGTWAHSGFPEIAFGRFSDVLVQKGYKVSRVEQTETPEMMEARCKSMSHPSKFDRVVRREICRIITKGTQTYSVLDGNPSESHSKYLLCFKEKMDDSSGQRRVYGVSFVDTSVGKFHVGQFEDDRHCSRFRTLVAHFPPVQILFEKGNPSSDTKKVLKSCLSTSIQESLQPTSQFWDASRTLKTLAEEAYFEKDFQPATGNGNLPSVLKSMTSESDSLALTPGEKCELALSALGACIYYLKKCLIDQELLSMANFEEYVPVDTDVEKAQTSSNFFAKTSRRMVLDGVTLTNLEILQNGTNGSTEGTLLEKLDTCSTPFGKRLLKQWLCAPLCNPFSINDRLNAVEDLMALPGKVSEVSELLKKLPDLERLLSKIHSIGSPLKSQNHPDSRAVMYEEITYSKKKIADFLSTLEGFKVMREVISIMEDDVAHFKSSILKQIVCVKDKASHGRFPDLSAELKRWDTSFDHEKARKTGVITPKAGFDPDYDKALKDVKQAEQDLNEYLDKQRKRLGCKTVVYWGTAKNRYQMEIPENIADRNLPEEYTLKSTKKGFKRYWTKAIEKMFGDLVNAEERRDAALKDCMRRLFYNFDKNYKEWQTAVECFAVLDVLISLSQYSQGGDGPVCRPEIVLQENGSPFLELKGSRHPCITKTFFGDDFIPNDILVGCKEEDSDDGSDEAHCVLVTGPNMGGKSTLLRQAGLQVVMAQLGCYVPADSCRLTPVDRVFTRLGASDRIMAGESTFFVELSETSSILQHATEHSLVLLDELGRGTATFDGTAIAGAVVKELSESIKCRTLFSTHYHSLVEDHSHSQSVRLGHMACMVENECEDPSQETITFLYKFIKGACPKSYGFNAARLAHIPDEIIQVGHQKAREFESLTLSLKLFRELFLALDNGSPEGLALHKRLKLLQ
methodSummary: SPR; no nucleotide or Mg2+ listed in running buffer; n = 2; SPR (BIACORE 3000): 20 mM Hepes-NaOH pH 7.5, 100 mM NaCl, 1 mM DTT, 0.005% Tween-20; 20 μl/min, 3 min association and 3 min dissociation; temperature not stated
assayContext: protein: recombinant; tags: C-terminal FLAG on xMsh6; copies: 1;1; label: 3' biotin on strand 1; blunt, A:C mismatch (A at strand 1 position 22, C in strand 2)
metricName: pKd
As a rule, pKd stands for the negative log10 of the concentration, concentration in M.

Looking up 42 bp A:C mismatch oligo DNA (dsDNA) DNA 1: GGGTGACCGTACTGCATCTCGAGATCCATGTTACTGCGTCAG DNA 2: CTGACGCAGTAACATGGATCCCGAGATGCAGTACGGTCACCC , I found its pKd recorded as 8.36
